What inhibition was measured for each of the following?
- Organism: Bos taurus
- Protocol Details: Displacement of [3H]flunitrazepam from benzodiazepine receptor in bovine brain membrane at 10 uM by liquid scintillation counting
- Format: cell membranes
Value expressed in %; do not type the unit.

Query: Provide one value: measured inhibition of `Cc1nn(-c2cccc(Cl)c2)c2c1c(=O)oc1ccccc12`
Result: 86

Query: Using the record for `Cc1ccc(-n2nc(C)c3c(=O)oc4ccccc4c32)cc1` , state its measured inhibition.
Result: 66

Query: Please look at this compound and report its inhibition: `Cc1nn(-c2ccccc2)c2c1oc(=O)c1ccccc12`
Result: 20

Query: Determine from records and report inhibition for `Cc1ccc(-n2nc(C)c3oc(=O)c4ccccc4c32)cc1`
Result: 13

Query: Provide measured inhibition value, entry: `Cc1nn(-c2cccc(Cl)c2)c2c1oc(=O)c1ccccc12`
Result: 28

Query: Tell me inhibition reported for `O=c1oc2ccccc2c2c1c(-c1ccccc1)nn2-c1ccccc1`
Result: 10

Query: Indicate the recorded inhibition value for this compound: `Cc1nn(-c2ccccc2)c2c1oc(=O)c1ccc(Cl)cc12`
Result: 35

Query: Specify inhibition for `Cc1ccc2c(c1)c(=O)oc1c(C)nn(-c3ccccc3)c12` and stop.
Result: 6

###

- Species: Bos taurus
- Protocol Details: Displacement of [3H]flunitrazepam from benzodiazepine receptor in bovine brain membrane at 10 uM by liquid scintillation counting
- Assay type: cell membranes
Please respond with reported inhibition for every item in the list.
Expressed in %, but write only the number.

Query: Identify the reported inhibition for the following entry. `Cc1nn(-c2ccccc2)c2c1c(=O)oc1ccccc12`
Result: 76

Query: Report inhibition, nothing else, for this compound: `O=c1oc2c(-c3ccccc3)nn(-c3ccccc3)c2c2ccccc12`
Result: 5

Query: Return the recorded inhibition value; entry: `Cc1nn(-c2ccccc2)c2c1oc(=O)c1cc(Cl)ccc12`
Result: 0

Query: Provide inhibition value for the following compound: `Cc1cccc(-n2nc(C)c3oc(=O)c4ccccc4c32)c1`
Result: 40

Query: // fetch inhibition given entry `O=c1oc2cnn(-c3ccccc3)c2c2ccccc12`
Result: 54

Query: Hello, please tell me recorded inhibition for this one: `Cc1cccc(-n2nc(C)c3c(=O)oc4ccccc4c32)c1`
Result: 78
